Cited source: the supplement of paper PMC12669032

tested on: Lactobacillus gasseri; assay: growth AUC relative to DMSO control (median of replicates) (fraction); higher = more growth (less inhibition), active = hit call of the paper; details: 20 µM; 24 h
Measured Metric: growth AUC
Give the figure by itself; no unit, no explanation.

Record COP(=O)(OC)Oc1ccc(S(C)(=O)=O)c(C)c1 has Lactobacillus gasseri growth AUC equal to 1.07

Record Nc1nc(N)nc(NC2CC2)n1 has Lactobacillus gasseri growth AUC equal to 0.877

Record Oc1c(Cl)c(Cl)cc(Cl)c1Cl has Lactobacillus gasseri growth AUC equal to 0.936

Record CNC(=O)Oc1cc(C)c(SC)c(C)c1 has Lactobacillus gasseri growth AUC equal to 0.883

Record CCCCCCCCCc1ccc(O)cc1 has Lactobacillus gasseri growth AUC equal to 0.904

Record O=S(=O)(c1ccccc1)c1ccccc1 has Lactobacillus gasseri growth AUC equal to 0.914

Record Cc1cc(Cl)ccc1O has Lactobacillus gasseri growth AUC equal to 0.979

Record COP(=S)(OC)Oc1ccc(S(C)(=O)=O)c(C)c1 has Lactobacillus gasseri growth AUC equal to 0.901

Record CC1(C)C(/C=C(\Cl)c2ccc(Cl)cc2)C1C(=O)OC(C#N)c1ccc(F)c(Oc2ccccc2)c1 (stereo not given) has Lactobacillus gasseri growth AUC equal to 1.04

Record CSc1nc(N=[N+]=[N-])nc(NC(C)C)n1 has Lactobacillus gasseri growth AUC equal to 1.15

Record COP(=S)(OC)SCn1nnc2ccccc2c1=O has Lactobacillus gasseri growth AUC equal to 0.929

Record CS(=O)(=O)c1ccc(C(=O)C2C(=O)CCCC2=O)c(Cl)c1 has Lactobacillus gasseri growth AUC equal to 1.09

Record COc1ccc(/C(=C/C(=O)N2CCOCC2)c2ccc(F)cc2)cc1OC has Lactobacillus gasseri growth AUC equal to 0.971

Record COP(=O)(OC)OC1=C(Cl)C2C=CCC12 (stereo not given) has Lactobacillus gasseri growth AUC equal to 0.957

Record CSC1=N[C@@](C)(c2ccccc2)C(=O)N1Nc1ccccc1 has Lactobacillus gasseri growth AUC equal to 0.853

Record CO/N=C(/C1=NOCCO1)c1ccccc1Oc1ncnc(Oc2ccccc2Cl)c1F has Lactobacillus gasseri growth AUC equal to 0.992

Record CN(C)NC(=O)CCC(=O)O has Lactobacillus gasseri growth AUC equal to 1.01

Record CC1(C)CCC(Cc2ccc(Cl)cc2)C1(O)Cn1cncn1 (stereo not given) has Lactobacillus gasseri growth AUC equal to 0.976

Record Oc1ccc(-c2ccccc2)cc1 has Lactobacillus gasseri growth AUC equal to 1.04

Record CCNc1nc(NC(C)C(C)C)nc(SC)n1 (stereo not given) has Lactobacillus gasseri growth AUC equal to 1.06

Record Nc1ncn[nH]1 has Lactobacillus gasseri growth AUC equal to 0.942

Record CCOP(=S)(Oc1cnc(C(C)(C)C)nc1)OC(C)C (stereo not given) has Lactobacillus gasseri growth AUC equal to 1.11

Record CCOP(=S)(OCC)SCn1nnc2ccccc2c1=O has Lactobacillus gasseri growth AUC equal to 1.01

Record CCCCN(CCCC)N=O has Lactobacillus gasseri growth AUC equal to 1.11

Record Clc1ccc(C(c2ccc(Cl)cc2)C(Cl)(Cl)Cl)cc1 has Lactobacillus gasseri growth AUC equal to 0.487
